Biological target: Cytochrome P450 2C19 (Homo sapiens)
Test: Cytochrome panel assay with activity outcomes
Settings: recombinant CYP, pro-luciferin dealkylation, luminescence, p450-cyp2c19; series mostly up to 57.1 µM
Protocol: The P450 gene superfamily is involved in the metabolism and clearance of xenobiotics. This assay used various human CYP P450 isozymes to measure the dealkylation of various pro-luciferin substrates to luciferin. The luciferin is then measured by luminescence after the addition of a luciferase detection reagent. […] Inhibitors and some substrates limit the production of luciferin, and decrease measured luminescence. […] 8, Detection, 1 sec, ViewLux luminescent read […]
In all, about 16,000 compounds went through this assay and about 5,800 (36%) were called active. Another 23% or so got no clear call; they are omitted. Calls follow the shape of the dose curve; as a rule, active = well fitted curve in the direction sought with a large enough effect; inconclusive = small, poorly fitted or top-dose-only effect, or effect the other way; inactive = no such curve, though single readings can be large or run the other way. The list shows a part of the results.
Bench note: report the call from Yes for active, No for inactive

As a guide, the following entries are already answered.
O=C(CCNS(=O)(=O)c1cccs1)N1CCc2ccccc2C1 = Yes
COCC(=O)O[C@]1(CCN(C)CCCc2nc3ccccc3[nH]2)CCc2cc(F)ccc2[C@@H]1C(C)C = No
Cc1ccc(S(=O)(=O)/N=C2/NC(=O)/C(=C/c3cccnc3)S2)cc1 = Yes
COc1cc2c(cc1OC)C(C(=O)Nc1cccc(C)n1)C(c1cccnc1)N(C)C2=O (stereo not drawn) = Yes
O=C(c1cnccn1)N1CCC2(CC1)CN(c1ccccc1)C2 = No

Input line: Dear all, I need the recorded test outcome for Cn1c2c(c(=O)n(C)c1=O)CN(CCN1CCNCC1)CN2 , thank you.
Output line: No

Input line: Dear all, I need the recorded test outcome for O=C(c1cnccn1)N1CCC2(CC1)CCN(c1ccccc1)CC2 , thank you.
Output line: No

Input line: Dear all, I need the recorded test outcome for COc1ccc(NC(=O)C2c3cc(OC)c(OC)cc3C(=O)N(C)C2c2cccnc2)cc1OC (stereo not drawn) , thank you.
Output line: No
